Quick list: hepatocyte CLint per entry.
PROTOCOL_NOTES: in vitro hepatocyte clearance, rat
Type: in vitro ADME
CONDITION_INFO: Rat hepatocytes; read-out: In vitro Clint (μL/min/10^6 cells)
VALUE_TYPE: hepatocyte CLint (µL/min/1e6 cells)

> print(dat)
                          smiles.str        value.type         unit.text  inequality.symbol  endpoint.result
1       CSc1ccccc1CNCCc1ccc(C#N)cc1O  hepatocyte CLint  µL/min/1e6 cells                  =              234
2  COc1cc(C(F)(F)F)ccc1CCNCc1ccccc1O  hepatocyte CLint  µL/min/1e6 cells                  <              614

###

Quick list: CLint scaled per entry.
PROTOCOL_NOTES: in vitro hepatocyte clearance, dog
Type: in vitro ADME
CONDITION_INFO: dog, hepatocytes; read-out: Scale-up Clint
VALUE_TYPE: CLint scaled (mL/min/kg)

> print(dat)
                                   compound    value.type  unit.text  endpoint.result
1   CSc1ccccc1CNCCc1ccc(C#N)cc1O [Cpd #109]  CLint scaled  mL/min/kg             1370
2  COc1cc(C(F)(F)F)ccc1CCNCc1ccccc1O [Cpd #93]  CLint scaled  mL/min/kg             2320

###

Quick list: EC50 per entry.
TARGET_OR_SYSTEM: 5-HT2C receptor (Homo sapiens)
Construct: expressed in transfected cells; host or cells: HEK293T
PROTOCOL_NOTES: cell-based
Format: cell-based
CONDITION_INFO: Table 2; at least three replicate trials; read-out: 5-HT2C BRET EC50
VALUE_TYPE: EC50 (nM)

> print(dat)
                              smiles.str  endpoint.result
 1         N#Cc1ccc(CCNCc2ccsc2Cl)c(O)c1             4670
 2      COc1cc(C#N)c(F)cc1CCNCc1ccccc1SC              114
 3         CSc1ccc(CCNCc2ccccc2SC)c(O)c1             44.1
 4         CSc1ccccc1CCNCCc1ccc(C#N)cc1O              160
 5            COc1cc(C#N)ccc1CCNCc1cccs1              198
 6         COc1cc(C#N)ccc1CCNCc1ccccc1OC             15.9
 7      COc1cc(C#N)ccc1CCN(C)Cc1ccccc1Cl           310000
 8     N#Cc1ccc(CCNCc2cccc3ccsc23)c(O)c1             5400
 9              COc1cc(Oc2ccccc2)ccc1CCN              796
10  N#Cc1ccc(CCNCc2cccc3cc[nH]c23)c(O)c1            10700
11            COc1ccccc1CNCCc1ccc(F)cc1O              8.7

###

Quick list: EC50 per entry.
TARGET_OR_SYSTEM: 5-HT2C receptor (Homo sapiens, UniProt P28335)
Construct: expressed in transfected cells; host or cells: HEK293T
Sequence (P28335 33-458): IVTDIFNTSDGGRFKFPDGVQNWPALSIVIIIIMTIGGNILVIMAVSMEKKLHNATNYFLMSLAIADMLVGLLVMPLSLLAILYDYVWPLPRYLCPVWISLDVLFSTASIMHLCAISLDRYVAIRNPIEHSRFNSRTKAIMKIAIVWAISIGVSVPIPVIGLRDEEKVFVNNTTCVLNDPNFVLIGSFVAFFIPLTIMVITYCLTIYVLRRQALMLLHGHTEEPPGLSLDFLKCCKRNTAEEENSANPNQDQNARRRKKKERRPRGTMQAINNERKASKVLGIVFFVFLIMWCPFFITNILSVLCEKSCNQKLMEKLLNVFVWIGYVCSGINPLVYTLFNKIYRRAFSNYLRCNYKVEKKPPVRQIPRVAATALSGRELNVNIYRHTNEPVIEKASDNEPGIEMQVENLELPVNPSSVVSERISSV
PROTOCOL_NOTES: cell-based
Assay type: cell-based
CONDITION_INFO: Table 2; at least three replicate trials; read-out: 5-HT2C BRET EC50
VALUE_TYPE: EC50 (µM)

> print(dat)
                                   compound  value.type  endpoint.result
1  COc1cc(C#N)ccc1CCNCc1ccc(F)cc1F [Cpd #59]        EC50             9.93
2   COc1cc(C#N)ccc1CCNCc1ccc(F)cc1 [Cpd #8]        EC50             8.74
3  COc1cc(C#N)c(F)cc1CCNCc1ccccc1O [Cpd #4]        EC50           0.0375
4  COc1cc(-c2ncco2)ccc1CCNCc1ccccc1Cl [Cpd #102]        EC50             1.64
5  COc1cc(-c2cnoc2)ccc1CCNCc1ccccc1Cl [Cpd #101]        EC50             9.52
6  COc1cc(Oc2ccccc2)ccc1CCNCc1ccccc1O [Cpd #127]        EC50            0.148
